molecular target: Cytochrome P450 3A4 (Homo sapiens) (UniProt P08684); test: Cytochrome panel assay with activity outcomes; settings: recombinant CYP, pro-luciferin dealkylation, luminescence, p450-cyp3a4; series mostly up to 57.1 µM
Sequence (P08684 whole entry, looked up): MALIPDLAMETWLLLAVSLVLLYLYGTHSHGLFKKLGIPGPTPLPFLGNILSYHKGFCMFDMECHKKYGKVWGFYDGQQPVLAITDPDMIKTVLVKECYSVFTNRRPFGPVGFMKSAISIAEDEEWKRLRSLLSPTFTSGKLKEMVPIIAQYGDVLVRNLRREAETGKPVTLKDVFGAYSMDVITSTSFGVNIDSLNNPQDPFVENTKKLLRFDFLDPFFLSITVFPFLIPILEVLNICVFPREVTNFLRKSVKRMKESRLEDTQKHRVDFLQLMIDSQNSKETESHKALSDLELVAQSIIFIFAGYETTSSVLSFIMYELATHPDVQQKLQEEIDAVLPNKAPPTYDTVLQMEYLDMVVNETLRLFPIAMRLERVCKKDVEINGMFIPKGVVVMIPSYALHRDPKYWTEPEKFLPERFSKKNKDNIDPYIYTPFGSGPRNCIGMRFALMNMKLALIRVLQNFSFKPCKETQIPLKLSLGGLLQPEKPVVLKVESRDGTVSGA
In all, about 16,000 compounds went through this assay and about 5,100 (32%) were called active. Not shown: some 25% with an inconclusive outcome. The call rests on the fitted dose curve; in most records, active means well fitted curve in the direction sought with a large enough effect; inconclusive means small, poorly fitted or top-dose-only effect, or effect the other way; inactive means no such curve, though single readings can be large or run the other way. This is one part of the list.
Give one outcome, nothing more. List: active, inactive

Q) Call for entry CCc1ccc(N(C(=O)c2csnn2)C(C(=O)NC(C)(C)C)c2ccncc2)cc1 (stereo not given) :
A) active

Q) Please do the same for Cc1cnc(CNc2nc(-c3ccoc3)nc3ccccc23)cn1 as well.
A) active

Q) Please do the same for Cc1[nH]c2c(C)cccc2c1CCNC(=O)c1ccc2c(c1[N+](=O)[O-])C(=O)c1ccccc1C2=O as well.
A) active

Q) Please do the same for C[C@]1(OC(=O)/C=C\c2ccccc2)C[C@@H](O)[C@@]2(O)C=CO[C@@H](O[C@H]3O[C@@H](CO)[C@@H](O)[C@@H](O)[C@@H]3O)[C@H]21 as well.
A) inactive

Q) Please do the same for Cn1nnnc1SCC(=O)Nc1ccccc1[N+](=O)[O-] as well.
A) inactive

Q) Please do the same for CCCn1c(=O)c2[nH]c(C3CCCC3)nc2n(CCC)c1=O as well.
A) inactive

Q) Please do the same for Clc1ccc2oc(-c3cccnc3)nc2c1 as well.
A) inactive

Q) Please do the same for CN(Cc1ccco1)c1nc(-c2cccc(C#N)c2)nc2ccccc12 as well.
A) active

Q) Please do the same for CC1=NN(c2ccccc2)C(=O)/C1=C\c1c(C)[nH]n(-c2ccccc2)c1=O as well.
A) inactive

Q) Please do the same for c1ccc2c(c1)ncn2-c1ccc(-c2ccnc(-c3ccncc3)n2)cc1 as well.
A) active

Q) Please do the same for Cc1nc(NC(=O)c2ccco2)sc1-c1csc(Nc2ccc(Cl)cc2Cl)n1 as well.
A) active

Q) Please do the same for CC1(C)CC(=O)C2=C(C1)N(Cc1cccnc1)C(=O)C2(NC(=O)c1cccnc1)C(F)(F)F (stereo not given) as well.
A) active

Q) Please do the same for CCNc1nc(NCC)nc(ON=C(C)C)n1 as well.
A) inactive

Q) Please do the same for COC(=O)CSc1nnc(C)n1-c1cccc(OC)c1 as well.
A) inactive

Q) Please do the same for COc1cccc(-c2nc(N(C)C)c3ccccc3n2)c1 as well.
A) active

---

molecular target: Cytochrome P450 3A4 (Homo sapiens) (UniProt P08684); assay: Cytochrome panel assay with activity outcomes; settings: recombinant CYP, pro-luciferin dealkylation, luminescence, p450-cyp3a4; series mostly up to 57.1 µM
Among all 16,000 compounds or so, about 5,100 (32%) were called active. Roughly 25% stayed inconclusive and do not appear here. The call rests on the fitted dose curve; in most records, active means well fitted curve in the direction sought with a large enough effect; inconclusive means small, poorly fitted or top-dose-only effect, or effect the other way; inactive means no such curve, though single readings can be large or run the other way. This is one part of the list.
Give one outcome, nothing more. List: Y = active, N = inactive

Q) Call for entry Cc1noc(C)c1C(=O)N1CCC[C@@]2(CCN(Cc3ccccc3)C2)C1 :
A) Y

Q) Please do the same for Cc1noc(C)c1C(=O)N1CCC2(CCN(Cc3ccccc3)CC2)CC1 as well.
A) N

Q) Please do the same for CCC(C)n1c(NC(=O)c2ccccc2)c(C#N)c2nc3ccccc3nc21 (stereo not drawn) as well.
A) N

---

biological target: Cytochrome P450 3A4 (Homo sapiens) (UniProt P08684); experiment: Cytochrome panel assay with activity outcomes; conditions: recombinant CYP, pro-luciferin dealkylation, luminescence, p450-cyp3a4; series mostly up to 57.1 µM
In all, about 16,000 compounds went through this assay and about 5,100 (32%) were called active. About 25% were inconclusive and are not listed. The call rests on the fitted dose curve; in most records, active means well fitted curve in the direction sought with a large enough effect; inconclusive means small, poorly fitted or top-dose-only effect, or effect the other way; inactive means no such curve, though single readings can be large or run the other way. The list shows a part of the results.
Give one outcome, nothing more. List: active, inactive

Q) Call for entry C[n+]1ccccc1/C=N\O :
A) inactive

Q) Please do the same for O=C1c2ccccc2C(=O)N1CCSC(=S)N1CCOCC1 as well.
A) inactive

Q) Please do the same for CN1CCN(C(c2ccccc2)c2ccccc2)CC1 as well.
A) inactive

Q) Please do the same for COc1ccc(C(Cl)=C(c2ccc(OC)cc2)c2ccc(OC)cc2)cc1 as well.
A) inactive

Q) Please do the same for COc1ccc(-c2nc3cnc(Nc4cccc(OC)c4)nc3n(CCC#N)c2=O)cc1 as well.
A) active

Q) Please do the same for O=C(O)Cc1ccc(O)c(O)c1 as well.
A) inactive

Q) Please do the same for O=S(=O)(O)c1nc2ccccc2n1Cc1ccccc1 as well.
A) inactive

Q) Please do the same for COc1ccccc1S(=O)(=O)Nc1ccc(-c2nnc3n2CCCCC3)cc1 as well.
A) active

Q) Please do the same for CCN1CCN(C(=O)CCc2nc3ccccc3c(=O)[nH]2)CC1 as well.
A) inactive

Q) Please do the same for COc1ccc(-c2csc(N3C(=N)SCC3=O)n2)cc1 as well.
A) inactive

Q) Please do the same for COc1cccc(-c2csc(N3CCN(CC(=O)NNC(=O)c4ccc(Cl)cc4)CC3)n2)c1 as well.
A) active

Q) Please do the same for COc1ccc(NC(=O)c2ncn[nH]2)cc1 as well.
A) inactive

Q) Please do the same for COC(=O)[C@@]1(Cc2ccc(F)cc2)[C@H]2c3cc(C(=O)N4CCCC4)n(Cc4cccc5ccccc45)c3C[C@H]2CN1C(=O)c1ccccc1 as well.
A) active

Q) Please do the same for COc1ccc(-c2nc3cnc(Nc4ccccc4)nc3n(CCC#N)c2=O)cc1 as well.
A) inactive

Q) Please do the same for COCCN(C(=O)Nc1ccc(OC)cc1OC)C1CCN(C(C)=O)CC1 as well.
A) inactive

Q) Please do the same for COc1ccccc1-c1ccc2ncnc(NCCNC(C)=O)c2c1 as well.
A) active

Q) Please do the same for CC1(C)Cc2c(C#N)c(SCc3ccccc3)nc(N3CCOCC3)c2CO1 as well.
A) active

Q) Please do the same for Cc1cc(=O)[nH]c2c1c(C)nn2C1CCOC(C)(C)C1 (stereo not drawn) as well.
A) inactive
